target: human thrombopoietin receptor (c-mpl) (Homo sapiens); assay: Stimulation of proliferation of thrombopoietin-dependent cell line UT7/EPO-mpl (WST-8); conditions: concentration yielding growth rate corresponding to 50% of growth of UT-7/EPO-mpl in the presence of 10 ng/mL TPO; 4 days incubation, WST-8
Sequence (P40238 26-635): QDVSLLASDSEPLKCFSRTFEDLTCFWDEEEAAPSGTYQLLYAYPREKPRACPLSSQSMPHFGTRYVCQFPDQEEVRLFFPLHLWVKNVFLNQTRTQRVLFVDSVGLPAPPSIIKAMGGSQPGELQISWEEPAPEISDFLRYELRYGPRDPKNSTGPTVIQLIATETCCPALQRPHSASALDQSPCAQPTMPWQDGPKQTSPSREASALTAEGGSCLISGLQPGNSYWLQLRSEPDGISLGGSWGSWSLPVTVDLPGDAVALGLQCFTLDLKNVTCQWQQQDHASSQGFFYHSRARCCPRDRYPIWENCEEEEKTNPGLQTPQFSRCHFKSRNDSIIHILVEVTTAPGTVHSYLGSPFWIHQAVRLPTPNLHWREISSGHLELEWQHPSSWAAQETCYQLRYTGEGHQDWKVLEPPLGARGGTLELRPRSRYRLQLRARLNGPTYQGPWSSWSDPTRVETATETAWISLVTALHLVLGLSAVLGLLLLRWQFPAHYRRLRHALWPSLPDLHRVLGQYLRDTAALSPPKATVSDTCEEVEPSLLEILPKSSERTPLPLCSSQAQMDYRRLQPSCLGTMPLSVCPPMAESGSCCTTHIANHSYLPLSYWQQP
Experimental readout: log10 of EC50 (log10 of the value in nM)

1) CCN(CC)C(=O)c1ccc(C(=O)N/N=C(\C)c2csc(-c3ccc4c(c3)CCC4)c2O)s1 : 0.81
2) COC(=O)c1ccc(C(=O)N/N=C(\C)c2nn(C)c(-c3ccc4c(c3)CCC4)c2O)cc1[N+](=O)[O-] : 1.07
3) C/C(=N\NC(=O)c1ccc(C(=O)O)s1)c1csc(-c2ccc3c(c2)CCC3)c1O : 0.52
4) C/C(=N\NC(=O)c1ccc(-c2nnn[nH]2)cc1)c1csc(-c2ccc3c(c2)CCC3)c1O : 1.35
5) C/C(=N\NC(=O)c1ccc(-c2nnn[nH]2)cc1)c1csc(-c2ccc3c(c2)CCCC3)c1O : 0.72
6) C/C(=N\NC(=O)c1ccc(C(=O)N2CCCC2)s1)c1nn(C)c(-c2ccc3c(c2)CCC3)c1O : 1.05
7) C/C(=N\NC(=O)c1ccc(C(=O)NCCc2ccncc2)s1)c1csc(-c2ccc3c(c2)CCC3)c1O : -0.06
8) C/C(=N\NC(=O)c1ccc(C(=O)NCc2ccncc2)s1)c1csc(-c2ccc3c(c2)CCO3)c1O : 0.73
9) C/C(=N\NC(=O)c1ccc(C(=O)O)s1)c1nn(C)c(-c2ccc3c(c2)CCC3)c1O : 1.66
10) C/C(=N\NC(=S)Nc1ccc(C(=O)O)cc1)c1nn(C)c(-c2ccc3c(c2)CCC3)c1O : 1.77
11) C/C(=N\NC(=O)c1ccc(C(=O)NCCc2ccncc2)s1)c1csc(-c2ccc3c(c2)CCO3)c1O : 1.48
12) C/C(=N\NC(=O)c1ccc(C(=O)O)s1)c1csc(-c2ccc3c(c2)CCCC3)c1O : 0.10
13) C/C(=N\NC(=O)c1ccc(C(=O)NCCc2ccncc2)s1)c1nn(C)c(-c2ccc3c(c2)CCC3)c1O : 0.53
14) C/C(=N\NC(=S)N1CCC(C(=O)O)CC1)c1csc(-c2ccc3c(c2)CCCC3)c1O : 0.57
15) C/C(=N\NC(=S)Nc1ccc(C(=O)O)c(Cl)c1)c1nn(C)c(-c2ccc3c(c2)CCC3)c1O : 1.11
16) C/C(=N\NC(=S)Nc1cccc(C(=O)O)c1)c1nn(C)c(-c2ccc3c(c2)CCC3)c1O : 1.36
